Below, each entry is listed alongside its reported S/N.
biological target: hFZD7 CRD-Fc (human, UniProt O75084 33-185); experiment: spot phage ELISA
Hey, just send me the number, nothing else.

Field: example entries. Status: answers known.
PPADDLAFWCDVMY [SEQ ID NO 85]
44.9
APADDLEFWCHVMY [SEQ ID NO 72]
51.6

*Q* Which value of S/N has been reported for APSDDLAAWCHVVY [SEQ ID NO 56] in the records?
*A* 54

*Q* Which S/N is reported for this binder? VASDDLEFWCHVMY [SEQ ID NO 58]
*A* 54

*Q* Name the reported S/N value associated with the binder VPADDLASWCHVMY [SEQ ID NO 63]
*A* 53.4

*Q* Please give the measured S/N for this binder: AAADDLEAWCAVMY [SEQ ID NO 59]
*A* 53.6

*Q* Look up S/N: AAADDLAFWCDVMY [SEQ ID NO 93]
*A* 8.5

*Q* Fill blank: measured S/N of the binder LPADDLAVWCDVMY [SEQ ID NO 52] is ____.
*A* 54.9
